- target.entity: Human GPR120 short form (Homo sapiens)
- Construct: expressed in transfected cells
- Sequence (Q5NUL3 1-361): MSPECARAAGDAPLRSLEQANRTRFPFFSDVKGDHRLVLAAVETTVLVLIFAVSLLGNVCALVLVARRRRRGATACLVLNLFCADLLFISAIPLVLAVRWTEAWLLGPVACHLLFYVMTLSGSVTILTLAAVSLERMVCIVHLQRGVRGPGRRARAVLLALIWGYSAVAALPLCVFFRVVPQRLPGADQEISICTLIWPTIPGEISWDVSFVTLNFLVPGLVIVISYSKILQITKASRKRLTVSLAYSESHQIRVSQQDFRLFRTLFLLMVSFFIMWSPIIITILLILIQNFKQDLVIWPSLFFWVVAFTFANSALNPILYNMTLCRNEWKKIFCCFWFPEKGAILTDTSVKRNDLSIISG
- assay.info: Human GPR120 calcium flux assay, Procedure Calcium A
- Assay type: cell-based
- measurement.setup: HEK-293 cells expressing human GPR120 short form, 2500 cells/well, FLIPR
readout.kind: EC50 (nM)

Use the examples below as a reference point.
Cc1ccc(-n2ccc(C(F)(F)F)c2COc2ccc(CCC(=O)O)c(F)c2F)cn1; 1990
CCc1ccc(-n2ccc(C(F)(F)F)c2COc2ccc(CCCO)c(F)c2F)cn1; 497

(P) Cc1c(CCC(=O)O)ccc(OCc2c(C(F)(F)F)ccn2-c2ccc(Br)cc2)c1C
(Q) CCc1ccc(-n2ccc(C(F)(F)F)c2COc2c(F)cc(CCC(=O)O)cc2F)cc1
Lookup: // task: argmin of EC50 over [ P , Q ] Which one? Tell me its label.
Found: Q
